These data points were gathered from PubChem BioAssay AID1996.

- measurement conditions: buffer; pH 7.4; 200.0 µM
Measured solubility kinetic accompanies every entry in the list below.
Please respond with the number in µg/mL and leave the unit unwritten.

# count of solved cases: 4
O=C(/C=C/c1ccccc1[N+](=O)[O-])c1ccc(F)cc1
4.5
Cc1ccc(CSCC(=O)NCCc2ccccc2)cc1
40.9
CCCOc1ccccc1Cn1c(=O)oc2ccccc21
3.9
COc1ccccc1NC(=O)NC(=O)c1ccccc1
0.4

[Q] Would you kindly share the measured solubility kinetic for Cc1ncc([N+](=O)[O-])n1CC(=O)Nc1cccc(C(F)(F)F)c1 ?
[A] 6

[Q] Would you kindly share the measured solubility kinetic for CSc1nsc(SC)c1NC(=O)Nc1ccccc1C ?
[A] 1

[Q] Would you kindly share the measured solubility kinetic for Cc1nc(N2CCCCC2)c2c(-c3cccs3)csc2n1 ?
[A] 2.3

----------
- measurement conditions: buffer; pH 7.4; 200.0 µM
measured endpoint: solubility kinetic

# count of solved cases: 3
COc1ccc2[nH]cc(CCN(C)C)c2c1
> 32.7 µg/mL
CC1=NOC(=O)/C1=C\c1ccc(-c2ccc(Cl)c(C(=O)O)c2)o1
> 49.8 µg/mL
COC(=O)CCC(=O)Nc1cccc([N+](=O)[O-])c1
> 37.8 µg/mL

[Q] Would you kindly share the measured solubility kinetic for CC1(C)Oc2ccc(C(=O)NC3CCCCC3)cc2N(CC#N)C1=O ?
[A] 12.9 µg/mL

[Q] Would you kindly share the measured solubility kinetic for COc1ccc(Nc2nc(N)c([N+](=O)[O-])c(NCc3ccccc3)n2)cc1 ?
[A] < 0.1 µg/mL

[Q] Would you kindly share the measured solubility kinetic for CCNC(=O)COc1ncnc2scc(-c3ccc(F)cc3)c12 ?
[A] > 49.7 µg/mL

[Q] Would you kindly share the measured solubility kinetic for O=C(Cn1cnc([N+](=O)[O-])c1)Nc1ccc(F)c(Cl)c1 ?
[A] 5 µg/mL

[Q] Would you kindly share the measured solubility kinetic for COc1ccccc1Nc1nc(-c2cccnc2)cs1 ?
[A] 1 µg/mL

[Q] Would you kindly share the measured solubility kinetic for Cc1[nH]c2ccccc2c1C(=O)C(C)OC(=O)C1CCC1 (configuration not stated) ?
[A] > 42.8 µg/mL

[Q] Would you kindly share the measured solubility kinetic for N#CC(C#N)=C(N)Nc1cccc(Cl)c1 ?
[A] 30.7 µg/mL

[Q] Would you kindly share the measured solubility kinetic for Cc1ccccc1-n1ccnc1SCC(=O)NC1CCCC1 ?
[A] > 47.3 µg/mL

[Q] Would you kindly share the measured solubility kinetic for CC12CCC(=O)N1C(C(=O)Nc1cccc(F)c1)CS2 (configuration not stated) ?
[A] > 44.2 µg/mL

----------
Measured solubility kinetic accompanies every entry in the list below.
- measurement conditions: buffer; pH 7.4; 200.0 µM
Please respond with the number in µg/mL and leave the unit unwritten.

COc1ccc(OC(=O)C(C)N2C(=O)c3ccccc3C2=O)cc1 (stereo not given)
33.3

[Q] Would you kindly share the measured solubility kinetic for O=C(C1CC1)N1c2ccccc2Sc2ccccc21 ?
[A] 7.1

[Q] Would you kindly share the measured solubility kinetic for CC(C)CC(=O)c1c[nH]c(C(=O)NCc2ccc(F)cc2)c1 ?
[A] 0.7

[Q] Would you kindly share the measured solubility kinetic for COc1ccc(CN2CCN(C(=O)CC(C)C)CC2)cc1 ?
[A] 36.8

[Q] Would you kindly share the measured solubility kinetic for N#CC(CC(=O)c1ccc(F)cc1)c1ccc2c(c1)OCO2 (stereo not given) ?
[A] 1.2

----------
- measurement conditions: buffer; pH 7.4; 200.0 µM
Classification field: Met = solubility kinetic at or over 10 µg/mL; Not met = solubility kinetic under 10 µg/mL.

O=C(NCC1CCCO1)c1cc2c(s1)CCCC2 (centres undefined)
Met
Cc1cc(NC(=O)CSCC(=O)OCc2nnc(-c3ccc(F)cc3)o2)no1
Met
CC(=O)N1c2ccccc2Sc2ccccc21
Met
COc1ccccc1C(CNc1ncccc1[N+](=O)[O-])N(C)C (centres undefined)
Met
Cc1cccc(C)c1NC(=O)c1c(O)c2ccccc2[nH]c1=O
Not met

Consider now this further compound.
[Q] // inclusive: solubility kinetic at least 10 µg/mL? input: COc1ccccc1NC(=O)C/C(N)=N/OCC(=O)Nc1cccc(Cl)c1
[A] Met

----------
- measurement conditions: buffer; pH 7.4; 200.0 µM
measured endpoint: log10(solubility kinetic) (log10 of the value in µg/mL)
A difference of one corresponds to tenfold solubility kinetic; all values are log10 with solubility kinetic in µg/mL.

Cc1cccc(NCc2ccc(Br)cc2)n1
1.08

[Q] Would you kindly share the measured log10(solubility kinetic) for CCOC(=O)C1C(c2ccccc2)NC(=S)NC1(C)O (stereo not given) ?
[A] 1.62

[Q] Would you kindly share the measured log10(solubility kinetic) for CCCc1nc2oc3ccccc3c(=O)c2c(=O)n1-c1ccc(C)cc1 ?
[A] 1.60

[Q] Would you kindly share the measured log10(solubility kinetic) for Cc1ccc(NC(=O)C2CCCCC2C(=O)O)cc1C (stereo not given) ?
[A] 1.61

----------
- measurement conditions: buffer; pH 7.4; 200.0 µM
measured endpoint: solubility kinetic (mg/mL)
Please respond with the number in mg/mL and leave the unit unwritten.

Cn1c(Nc2ccc(F)cc2)nc2ccccc21
0.028
CCC(OC(=O)C1=Cc2ccccc2OC1)C(=O)NCc1ccco1 (configuration not stated)
0.0031
O=C(NCc1ccccn1)Nc1cccc(F)c1
0.0359

[Q] Would you kindly share the measured solubility kinetic for Fc1ccccc1-c1nc(NC2CCCC2)c2ccccc2n1 ?
[A] 0.0111

[Q] Would you kindly share the measured solubility kinetic for CCc1ccccc1NC(=O)CCS(=O)(=O)c1ccc(OC)cc1 ?
[A] 0.0264

----------
Measured log10(solubility kinetic) accompanies every entry in the list below.
- measurement conditions: buffer; pH 7.4; 200.0 µM
A difference of one corresponds to tenfold solubility kinetic; all values are log10 with solubility kinetic in µg/mL.

# count of solved cases: 2
Cc1ccc(C)c2c1c1ccccc1n2C
0.04
Cc1ccc(-c2nc3ccccn3c2C=O)cc1
0.93

[Q] Would you kindly share the measured log10(solubility kinetic) for Cc1cc(=O)oc2cc(NC(=O)Cc3ccccc3)ccc12 ?
[A] 0.04

[Q] Would you kindly share the measured log10(solubility kinetic) for CCS(=O)(=O)N1CCC(N2CCN(c3ccccc3)CC2)CC1 ?
[A] 1.70

[Q] Would you kindly share the measured log10(solubility kinetic) for Cc1ccc(-n2c(SCC(=O)N3CCCCC3)nc(O)cc2=O)cc1 ?
[A] 1.70

[Q] Would you kindly share the measured log10(solubility kinetic) for CC/C(O)=C1\C(=O)CCCC1=NCCc1c(C)[nH]c2ccc(C)cc12 ?
[A] 0.52

----------
- measurement conditions: buffer; pH 7.4; 200.0 µM
measured endpoint: solubility kinetic

# count of solved cases: 4
CCNC(=O)C(C)NC(=O)C1=NN(c2ccccc2)C(=O)CC1 (stereo not given)
> 47.5 µg/mL
COc1ccc(-c2nc3ccc(C)cc3c(=O)o2)cc1OC
< 0.6 µg/mL
Cc1noc(C)c1C(=O)NCC(=O)Nc1ccccc1Br
> 52.8 µg/mL
CN=C(Nc1cccnc1)c1ccccc1
> 31.7 µg/mL

[Q] Would you kindly share the measured solubility kinetic for Cc1ccc(Sc2ncccc2N)cc1 ?
[A] 32.2 µg/mL

[Q] Would you kindly share the measured solubility kinetic for Cc1ccccc1C(=O)NCCNC(=O)c1ccco1 ?
[A] > 40.8 µg/mL

[Q] Would you kindly share the measured solubility kinetic for CC1=C(C(=O)Nc2ccc(C(=O)NCCC(C)C)cc2)SCCO1 ?
[A] 46.3 µg/mL

[Q] Would you kindly share the measured solubility kinetic for O=C(CCc1c[nH]c2ccccc12)NCCc1ccc2c(c1)OCCO2 ?
[A] 44.4 µg/mL

[Q] Would you kindly share the measured solubility kinetic for CN1CC(C(=O)Nc2ccc(F)c(Cl)c2)CC1=O (stereo not given) ?
[A] > 40.6 µg/mL

[Q] Would you kindly share the measured solubility kinetic for Cc1ccc(NS(=O)(=O)c2ccc3c(c2)n(C)c(=O)n3C)c(C)c1 ?
[A] 17.9 µg/mL

[Q] Would you kindly share the measured solubility kinetic for O=C(Nc1ccccc1Cl)c1cccc(NC(=O)C2CCCC2)c1 ?
[A] 26.9 µg/mL

[Q] Would you kindly share the measured solubility kinetic for Cc1cc(Cl)ccc1NC(=O)CN1C(=O)NC2(CCCC2)C1=O ?
[A] > 50.4 µg/mL

[Q] Would you kindly share the measured solubility kinetic for CCOC(=O)c1sc(-c2ccc(Cl)cc2)nc1O ?
[A] 40.8 µg/mL

[Q] Would you kindly share the measured solubility kinetic for CCC1NC(=O)c2ccccc2N1c1cccc(Cl)c1 (stereo not given) ?
[A] 29.8 µg/mL

[Q] Would you kindly share the measured solubility kinetic for O=C(O)c1cc(O)ccc1NC(=O)c1cccc2ccccc12 ?
[A] > 46.1 µg/mL

[Q] Would you kindly share the measured solubility kinetic for CCc1cc(=O)[nH]c(SCC(=O)N2CCCC2)n1 ?
[A] > 40.1 µg/mL

[Q] Would you kindly share the measured solubility kinetic for CC(C)(C)S(=O)(=O)c1cnc(N2CCCC2)nc1N ?
[A] 37.9 µg/mL

[Q] Would you kindly share the measured solubility kinetic for CCOC(=O)N1CCN(S(=O)(=O)c2ccc3c4c(cccc24)C(=O)N3)CC1 ?
[A] 3.6 µg/mL

[Q] Would you kindly share the measured solubility kinetic for C=CCNC(=S)N1CCc2[nH]c3ccccc3c2C1 ?
[A] 5.5 µg/mL

[Q] Would you kindly share the measured solubility kinetic for Cc1ccc(C)c(Nc2c([N+](=O)[O-])ccc3nonc23)c1 ?
[A] 0.2 µg/mL

[Q] Would you kindly share the measured solubility kinetic for CC1CC(C)CN(C(=O)Cc2c(C(=O)O)[nH]c3ccc(Cl)cc23)C1 (stereo not given) ?
[A] > 52.3 µg/mL

[Q] Would you kindly share the measured solubility kinetic for CC(NC(=O)c1ccco1)c1ccc2c(c1)OCO2 (stereo not given) ?
[A] > 38.9 µg/mL

[Q] Would you kindly share the measured solubility kinetic for COc1ccc(/C=N/OCC(=O)N2CCCC2)c(OC)c1 ?
[A] > 43.9 µg/mL

[Q] Would you kindly share the measured solubility kinetic for COc1ccc(NC(=O)COc2ccccc2)cc1NC(=O)c1ccco1 ?
[A] 1.2 µg/mL

[Q] Would you kindly share the measured solubility kinetic for O=C(Cn1c(CO)nc2ccccc21)NCc1ccc2c(c1)OCO2 ?
[A] > 50.9 µg/mL
